target: Mitogen-activated protein kinase 14 (Homo sapiens) (UniProt Q16539); settings: at 1 µM;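 also: values are mean percent inhibition of p38alpha kinase activity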
Sequence (Q16539 whole entry): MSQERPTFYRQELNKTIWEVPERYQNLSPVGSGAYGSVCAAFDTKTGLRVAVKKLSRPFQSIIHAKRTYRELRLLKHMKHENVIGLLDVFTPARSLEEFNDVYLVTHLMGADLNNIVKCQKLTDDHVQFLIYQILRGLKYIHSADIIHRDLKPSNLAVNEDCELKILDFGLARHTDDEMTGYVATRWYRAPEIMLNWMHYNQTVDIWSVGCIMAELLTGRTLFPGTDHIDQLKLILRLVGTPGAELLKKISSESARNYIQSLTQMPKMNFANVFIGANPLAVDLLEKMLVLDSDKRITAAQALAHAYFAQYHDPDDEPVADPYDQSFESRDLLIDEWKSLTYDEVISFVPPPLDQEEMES
recorded.endpoint: inhibition
Please report the result as a number followed by the unit.

// query Returns the measured inhibition for the input molecule. Input: CN(C)CCNC(=O)Nc1ccc(N(C)c2ccnc(Nc3ccc(CS(C)(=O)=O)cc3)n2)cc1
// result 7.04%

// query Proceed to FC(F)(F)CNc1nccc(-c2cnn3ncccc23)n1
// result 5.78%

// query Entry to check: CC1=C(C(=O)Nc2ccc3[nH]nc(C)c3c2)C(c2ccc(C(F)(F)F)cc2)CC(=O)N1 (stereo unspecified)
// result 5.28%

// query O=C(Nc1n[nH]c2nnc(-c3cccnc3)cc12)C1CC1 ?
// result -1.37%

// query Okay, and CCS(=O)(=O)c1ccc(OC)c(Nc2ncc(-c3cccc(F)c3)o2)c1 ?
// result 14.9%

// query Note, next up: NC(=O)c1ccc2c(-c3ccnc(NCCCO)n3)c(-c3ccc(F)cc3)nn2c1
// result 86.4%

// query Check CNC(=O)c1cncc(/C=C/c2ccccc2C)c1 too.
// result 6.09%

// query What do you have for COc1cccc(-n2ncc3c(N/N=C/c4ccc(C(=O)NCCN(C)C)cc4)ncnc32)c1 ?
// result 11.8%

// query Another molecule to look at: CC1(C)CC(n2cnc(-c3ccc(F)cc3)c2-c2ccnc(N)n2)CC(C)(C)N1
// result 77.6%

// query Record: COC(=O)Nc1nc2cc(Oc3ccc(NC(=O)Nc4ccccc4)cc3)ccc2[nH]1
// result 6.62%

// query What about this molecule? CCN1CCC(C(=O)Nc2n[nH]c3nnc(-c4cccc(F)c4F)cc23)CC1
// result -0.72%

// query And the next one, COc1ccc(Nc2ncc(-c3ccccc3)o2)cc1OC ?
// result 5.01%

// query Likewise for CC(C)c1ccc(-c2cc(-c3c[nH]nc3-c3ccccn3)ccn2)cc1 ?
// result 15.8%

// query Try this molecule next: COc1cc(N2CCN(C(C)C)CC2)ccc1Nc1nc(Nc2cccc3ncccc23)c2cc[nH]c2n1
// result 2.03%

// query Please give the result for COc1ccc(-c2nn3ncccc3c2-c2ccnc(Nc3ccc(F)c(F)c3)n2)cc1 too.
// result 81%

// query Same question, c1ccc(-c2n[nH]cc2-c2ccnc(-c3ccc(OCCn4ccnc4)cc3)c2)nc1 this time
// result 36.8%

----------
target: cAMP-dependent protein kinase catalytic subunit PRKX (Homo sapiens) (UniProt P51817); details: at 0.1 µM;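 also: values are mean percent inhibition of PRKX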
Sequence (P51817 whole entry): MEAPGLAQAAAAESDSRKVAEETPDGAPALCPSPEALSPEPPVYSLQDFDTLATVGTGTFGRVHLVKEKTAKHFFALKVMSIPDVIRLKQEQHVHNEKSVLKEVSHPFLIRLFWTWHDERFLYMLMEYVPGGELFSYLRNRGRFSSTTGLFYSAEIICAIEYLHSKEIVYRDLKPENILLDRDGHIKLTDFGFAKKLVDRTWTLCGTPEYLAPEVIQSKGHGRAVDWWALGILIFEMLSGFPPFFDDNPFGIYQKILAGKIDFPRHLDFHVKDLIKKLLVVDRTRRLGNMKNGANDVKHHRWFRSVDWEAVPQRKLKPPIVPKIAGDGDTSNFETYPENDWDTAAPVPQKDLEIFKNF
# if value of inhibition reaches 1%, tag true; if it stays below, tag false

// query Check this compound for inhibition at or above 1%: COc1ccccc1-c1cc(/C=C2\C(=O)Nc3ncc(Br)cc32)cc(Br)c1O
// result false

// query Now try CNC(=O)c1cncc(/C=C/c2ccccc2C)c1 .
// result true

// query What about this compound? CS(=O)(=O)CCNCc1ccoc1-c1ccc2ncnc(Nc3ccc(OCc4ccccc4)cc3)c2c1
// result false

// query Param item: CCN1CCC(C(=O)Nc2n[nH]c3nnc(-c4cccc(F)c4F)cc23)CC1
// result false

// query Try CN1CCC(n2cnc(-c3ccc(F)cc3)c2-c2ccnc(NCCO)n2)CC1 next.
// result true

// query Moving on to the next compound: N#Cc1cccc(Nc2ncc(-c3ccccc3)o2)c1
// result true

// query Now this one: CCn1c(-c2nonc2N)nc2cncc(C(=O)NCCNC)c21
// result true

// query Same question for NS(=O)(=O)c1ccc(N/N=C2\C(=O)Nc3cccc(CCc4ccncc4)c32)cc1 please.
// result false

// query Another compound to look at: CN(c1ccc(NC(=O)NCCN2CCOCC2)cc1)c1ccnc(Nc2ccc(CS(C)(=O)=O)cc2)n1
// result true

// query How about Cc1cc(O)cc(C)c1/C=C/c1cncc(C(=O)OC(C)(C)C)c1 ?
// result true
